B1: LOC100129726 (parent)
chain: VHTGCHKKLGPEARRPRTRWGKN

# Variants of: B1
# test-summary: protein stability index of a GFP-peptide fusion (GPS, HEK-293T) (PSI 1-6); higher = more stable;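 note: lentivirally expressed fusions sorted by FACS into six bins by GFP to DsRed ratio, PSI derived from sequencing read proportions per bin multiplied by bin number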
# settings: c terminus: native
protein stability index by entry:
Number only, no unit.

A selection of reference data follows.
> print(dat)
                 sequence.content  test.value
1  VHTGCHKKLGPEAKRPRTRWGKN [R14K]        2.05
2   VHTGYHKKLGPEARRPRTRWGKN [C5Y]        1.98
3  VHTGCHKKLGPEARRPRTRWGKF [N23F]        2.03

-- ask Quick one: protein stability index of VHTGVHKKLGPEARRPRTRWGKN [C5V] ?
-- reply 2.93

-- ask Quick one: protein stability index of VHTGCHKKLGPEARRPATRWGKN [R17A] ?
-- reply 2.5
